Field: IC50. Provide a value for each of the compounds that follow.
target: human PHD2 (Homo sapiens, UniProt Q9GZT9); construct: made in house; host or cells: Sf9 insect cells (baculovirus, pVL1393 vector); test: Measurement of human PHD inhibitory activity (TR-FRET, hydroxylation of HIF-1α partial peptide); type: biochemical; settings: human PHD2 enzyme 1 nM, 25° C. 30 min, values consisting solely of numbers; read-out: IC50 (μM) in vitro, human PHD inhibitory activity
Sequence (Q9GZT9 whole entry): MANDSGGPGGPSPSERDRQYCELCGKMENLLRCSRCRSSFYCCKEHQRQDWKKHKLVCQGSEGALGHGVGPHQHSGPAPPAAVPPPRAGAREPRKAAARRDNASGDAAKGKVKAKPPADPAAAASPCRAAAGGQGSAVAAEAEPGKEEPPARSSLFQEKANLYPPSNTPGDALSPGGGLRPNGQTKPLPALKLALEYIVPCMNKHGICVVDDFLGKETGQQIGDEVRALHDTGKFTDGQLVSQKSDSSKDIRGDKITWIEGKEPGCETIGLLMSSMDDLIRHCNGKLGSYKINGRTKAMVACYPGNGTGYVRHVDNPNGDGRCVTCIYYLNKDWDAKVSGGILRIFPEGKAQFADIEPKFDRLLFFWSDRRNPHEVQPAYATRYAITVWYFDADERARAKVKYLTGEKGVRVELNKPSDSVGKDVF
Counter-ions that a name gives are not always drawn.
Give the quantity in µM, number only.

[Q] Record request: IC50 value, item O=C(O)CNC(=O)c1c(O)cc(-c2cc(F)ccc2F)n2ncnc12 [Example 75, acetic acid hydrochloride]
[A] 0.21

[Q] For O=C(O)CNC(=O)c1c(O)ccn2c(-c3ccccc3)nnc12 , what is its reported IC50?
[A] 0.56

[Q] Field request: IC50 | item: O=C(O)CNC(=O)c1c(O)cc(CC2CCCCC2)n2ncnc12 [Example 28, hydrochloride]
[A] 1.38

[Q] Could you share which IC50 value was measured for C[C@@H](NC(=O)c1c(O)cc(-c2cc(F)cc(F)c2)n2ncnc12)C(=O)O [Example 64, hydrochloride] ?
[A] 6.88

[Q] Could you tell me which IC50 is on file for O=C(O)CNC(=O)c1c(O)cc(Cc2ccc(F)cc2)n2ncnc12 [Example 63, acetic acid hydrochloride] ?
[A] 0.36

[Q] Given CC(NC(=O)c1c(O)cc(-c2cc(F)cc(F)c2)n2ncnc12)C(=O)O (stereo not drawn) [Example 66, hydrochloride] , state its recorded IC50.
[A] 1.5

[Q] Look up IC50 for this compound: CC(C)(C)CCc1cc(O)c(C(=O)NCC(=O)O)n2ncnc12 [Example 8, hydrochloride]
[A] 0.49

[Q] Report IC50 for CC(C)c1cc(O)c(C(=O)NCC(=O)O)c2ncnn12 [Example 35, hydrochloride] please.
[A] 0.88

[Q] Entry O=C(O)CNC(=O)c1c(O)cc(CCc2ccccc2)n2nc(C3CC3)nc12 [Example 15, hydrochloride] has what IC50?
[A] 1.8

[Q] Given the entry O=C(O)CNC(=O)c1c(O)cc(CCC2CCCCC2)c2ncnn12 [Example 98, acetic acid hydrochloride] , report its measured IC50.
[A] 1.13

[Q] Item under review: O=C(O)CNC(=O)c1c(O)cc(C2=CCCCC2)c2ncnn12 [Example 93, acetic acid hydrochloride] . Reported IC50?
[A] 0.51

[Q] Reported IC50 for O=C(O)CNC(=O)c1c(O)cc(CCC2CCCC2)c2ncnn12 [Example 99, acetic acid hydrochloride] : what is it?
[A] 0.87

[Q] Form field: reported IC50 of O=C(O)CNC(=O)c1c(O)cc(CC2CCC2)n2ncnc12 [Example 53, acetic acid hydrochloride]
[A] 0.5

[Q] Quick check: IC50 of O=C(O)CNC(=O)c1c(O)cc(-c2cc(F)cc(F)c2F)n2ncnc12 [Example 76, acetic acid hydrochloride] ?
[A] 0.22

[Q] What value of IC50 has been reported for the following compound? O=C(O)CNC(=O)c1c(O)cc(-c2ccc(F)c(C(F)(F)F)c2)n2ncnc12 [Example 1, hydrochloride]
[A] 0.42

[Q] # get_value(readout='IC50', item= O=C(O)CNC(=O)c1c(O)cc(-c2ccc(F)c(C(F)(F)F)c2)c2ncnn12 [Example 106, acetic acid hydrochloride] )
[A] 0.23

[Q] Given the compound O=C(O)CNC(=O)c1c(O)cc(-c2ccc(F)cc2)n2ncnc12 [Example 32, hydrochloride] , what is its reported IC50?
[A] 0.38

[Q] # input compound: O=C(O)CNC(=O)c1c(O)cc(-c2cc(F)cc(C(F)(F)F)c2)n2ncnc12 [Example 118] ; wanted: its IC50
[A] 0.64

[Q] IC50 for O=C(O)CNC(=O)c1c(O)cc(CCc2ccc(C3CC3)cc2)n2ncnc12 [Example 38, hydrochloride] ?
[A] 0.59

[Q] Could you share which IC50 value was measured for O=C(O)CNC(=O)c1c(O)cc(-c2cc(F)c(F)c(F)c2)n2ncnc12 [Example 49, hydrochloride] ?
[A] 0.24

[Q] Could you tell me which IC50 is on file for O=C(O)CNC(=O)c1c(O)cc(-c2cc(F)cc(C(F)(F)F)c2)n2ncnc12 [Example 31, hydrochloride] ?
[A] 0.8

[Q] Please give the measured IC50 for this compound: O=C(O)CNC(=O)c1c(O)cc(-c2cccc(F)c2F)n2ncnc12 [Example 59, acetic acid hydrochloride]
[A] 0.26

[Q] State the recorded IC50 for this entry: O=C(O)CNC(=O)c1c(O)cc(-c2cc(C(F)(F)F)cc(C(F)(F)F)c2)c2ncnn12 [Example 97, acetic acid hydrochloride]
[A] 0.13

[Q] Look up IC50 for this compound: O=C(O)CNC(=O)c1c(O)cc(CCc2ccc(C(F)(F)F)cc2)c2ncnn12 [Example 102, acetic acid hydrochloride]
[A] 0.51

[Q] # get_value(readout='IC50', item= O=C(O)CNC(=O)c1c(O)cc(-c2cc(F)cc(C3CC3)c2)n2ncnc12 [Example 122] )
[A] 0.96

[Q] I am curious: what IC50 value has been reported for O=C(O)CNC(=O)c1c(O)cc(CCc2cc(F)cc(F)c2)n2ncnc12 [Example 19, hydrochloride] ?
[A] 0.26

[Q] Which IC50 is reported for this compound? O=C(O)CNC(=O)c1c(O)cc(C2CCCC2)n2ncnc12 [Example 30, hydrochloride]
[A] 0.98

[Q] What value of measured IC50 is listed for Cl.O=C(O)CNC(=O)c1c(O)cc(Cc2ccccc2)c2ncnn12 [Example 86, acetic acid hydrochloride] ?
[A] 0.83

[Q] Name the recorded IC50 for CCC(CC)c1cc(O)c(C(=O)NCC(=O)O)c2ncnn12 [Example 40, hydrochloride] .
[A] 0.87

[Q] Return reported IC50; argument: Cc1cccc(-c2cc(O)c(C(=O)NCC(=O)O)c3ncnn23)c1 [Example 51, acetic acid hydrochloride]
[A] 0.26
